Entry source: patent US11535650

Record form. Attribute: Avg. IC50, hemolysis assay (C5 depleted sera + purified human C5). Fill in for each entry.
target: human C5 protein (human, UniProt P01031 19-673; P01031 678-1676); assay: cell-based or functional assay
Positions of bridges follow the written chain, without caps; N, C: chain ends. Non-standard residues stand in square brackets, D forms with d. Primed or numbered codes have the meaning given here. No end group written: not given here. *: point of attachment. mXylyl(3) = bridging moiety between the two residues given in brackets; Trp(7-aza) = N[C@@H](Cc1c[nH]c2ncccc12)C(=O)O; ivDde = CC(C)CC(=C1C(=O)CC(C)(C)CC1=O)*; 2Nal = N[C@@H](Cc1ccc2ccccc2c1)C(=O)O; NMeD = CN[C@@H](CC(=O)O)C(=O)O; Chg = N[C@H](C(=O)O)C1CCCCC1; Tle = CC(C)(C)[C@H](N)C(=O)O; Ac5c = NC1(C(=O)O)CCCC1; Nva = CCC[C@H](N)C(=O)O
The reply should be a number in nM, with the unit left off.

In: Would you mind telling me what Avg. IC50, hemolysis assay (C5 depleted sera + purified human C5) value was observed for Ac-KVERFD[NMeD][Tle]YWEYP[Chg]K (lactam 1-6) [R3196] ?
Out: 3

In: Would you mind telling me what Avg. IC50, hemolysis assay (C5 depleted sera + purified human C5) value was observed for [(desamino)Cys][dA]ERFC[NMeD][Tle]Y[Trp(7-aza)]EYP[Chg]K(C16) (bridge 1-6) [R3199] ?
Out: 112

In: Would you mind telling me what Avg. IC50, hemolysis assay (C5 depleted sera + purified human C5) value was observed for Ac-CVERFCD[Tle]Y[Trp(7-aza)]E[2Nal]P[Chg][Nva] (linker 1-6 via mXylyl(3)) [R3180] ?
Out: 29

In: Would you mind telling me what Avg. IC50, hemolysis assay (C5 depleted sera + purified human C5) value was observed for Ac-CVERFC[Ac5c][Tle]Y[Trp(7-aza)]EYP[Chg][Nva] (linker 1-6 via mXylyl(3)) [R3185] ?
Out: 12.5

In: Would you mind telling me what Avg. IC50, hemolysis assay (C5 depleted sera + purified human C5) value was observed for Ac-KVERFD[NMeD][Tle]Y[Trp(7-aza)]EYP[Chg]K(C16)-NH2 (lactam 1-6) [R3194] ?
Out: 15.5

In: Would you mind telling me what Avg. IC50, hemolysis assay (C5 depleted sera + purified human C5) value was observed for Ac-KVERFD[NMeD][Tle]YWEYP[Chg]K(ivDde) (lactam 1-6) [R3197] ?
Out: 4
